Documented relative viability across a set of compounds
# Test system: EMC-BAC-2
# assayMethodText: relative viability (nuclei count vs DMSO), 5 days (fraction); higher = more cells survive
# testConditions: first compound 0.04 µM
API doc: respond with a numeric literal and nothing else, no unit.

Solved entries (count: 2):
{"columns": ["compound", "relative viability"],
 "data": [
  ["O=C(O)c1ccc(-c2c[nH]c3ncc(-c4ccccc4)cc23)cc1C1CCCC1 + Cc1nc(Nc2ncc(C(=O)Nc3c(C)cccc3Cl)s2)cc(N2CCN(CCO)CC2)n1 [Dasatinib] (partner 0.075 µM)", 0.285],
  ["O=C(O)c1ccc(-c2c[nH]c3ncc(-c4ccccc4)cc23)cc1C1CCCC1 + CS(=O)(=O)CCNCc1ccc(-c2ccc3ncnc(Nc4ccc(OCc5cccc(F)c5)c(Cl)c4)c3c2)o1 [Lapatinib] (partner 2 µM)", 0.848]
]}

// next item, relative viability requested
Value of relative viability reported for the compound O=C(O)c1ccc(-c2c[nH]c3ncc(-c4ccccc4)cc23)cc1C1CCCC1 + Cc1cc(Nc2cc(N3CCN(C)CC3)nc(Sc3ccc(NC(=O)C4CC4)cc3)n2)n[nH]1 [Tozasertib] (partner 0.1 µM) is 0.29
